Test system: XIP peptide (Xip251-270) binding
Assay: XIP fragment 251-270 binding compounds – biochemical, small-molecule microarray, fluorescence 635/667 nm, 0.1 µg/mL protein, primary screen (AID 1182)
Details: fluorescent protein binding, 635 nm, higher = more signal, called active from +8 up or from −8 down
quantity_name: composite z-score
Lab note: jot the number down without any unit.

Exercise: Record request: composite z-score value, item COc1cc(NN2C(C(O)c3ccco3)C=CC3C(=O)N(C)C(=O)C32)cc(OC)c1OC (stereo not given)
Key: -0.0656

Exercise: Requested read-out: composite z-score. Entry: O=C1O[C@H](c2ccccc2)[C@H](c2ccccc2)N2[C@H]1[C@@H](C(=O)O)[C@]1(C(=O)Nc3ccc(C#CCCO)cc31)[C@H]2c1ccccc1OCCO
Key: 0.154

Exercise: GET /values?readout=composite z-score&item= C=CCNC(=O)[C@H]1[C@@H]2C(=O)O[C@@H](c3ccccc3)[C@@H](c3ccccc3)N2[C@@H](c2ccccc2OCCO)[C@]12C(=O)N(C(=O)OCCOC)c1ccc(C#CC3(O)CCCCCC3)cc12
Key: 0.892

Exercise: Look up composite z-score: N#Cc1ccc(NN2C(C(O)c3ccc(Br)cc3)C=CC3C(=O)N(c4ccccc4)C(=O)C32)cc1 (stereo not given)
Key: 1.13

Exercise: Item under review: [N-]=[N+]=Nc1ccccc1C[C@]1(C(=O)NCCN2CCOCC2)COC(c2ccc(OCCCO)cc2)=N1 . Reported composite z-score?
Key: 0.728

Exercise: Request the reported composite z-score associated with O=C1C2C=CC(C(O)c3ccco3)N(Nc3ccccc3F)C2C(=O)N1c1ccccc1 (stereo not given)
Key: 0.36

Exercise: Recorded composite z-score for CCOC(=O)C[C@H]1[C@H](OC(=O)Cc2ccc3c(c2)OCO3)[C@@H](NC(=O)c2ccc3ccccc3n2)c2cc(OCCCO)ccc2N1C(=O)c1ccccc1 , please?
Key: 0.269

Exercise: // returns reported composite z-score for input COC(=O)[C@@]1(Cc2ccc(F)cc2)[C@H]2c3cc(C(=O)N4CCCC4)n(Cc4ccc(C)c(F)c4F)c3C[C@H]2CN1C(=O)c1ccccc1
Key: -0.0082

Exercise: Request the reported composite z-score associated with C=C(COC)/C(=C/C[C@H](OC(=O)c1ccncc1)c1ccc(CO)o1)c1cnc2ccccc2c1
Key: 1.02

Exercise: Param item = CC(C)N1C(=O)C[C@@](C(=O)O)(c2ccc([N+](=O)[O-])cc2)[C@H]1c1ccc(CO)cc1 ; retrieve measured composite z-score.
Key: 1.04

Exercise: Which composite z-score is reported for this molecule? CC(CO)N1C(=O)[C@]2(C)C3C(=O)OCCC/C=C\[C@H]3OC23C=CCN(c2ccc(Cl)cc2)C(=O)[C@@H]13 (stereo not given in full)
Key: -0.356

Exercise: Entry COC(=O)[C@@H]1N=C(c2ccc(OCCCO)cc2)O[C@@H]1C has what composite z-score?
Key: 0.0312

Exercise: Please give the measured composite z-score for this molecule: CCOC(=O)C1=C[C@@H](C(C)C)N(S(=O)(=O)c2ccc(C)cc2)[C@H]1c1ccc(C(F)(F)F)cc1
Key: 0.438

Exercise: Which value of composite z-score has been reported for COc1ccc([Si](C)(C)[C@@H]2[C@@H](CC(=O)N(CCO)Cc3ccccc3)O[C@]3(C(=O)N(Cc4cccc(N5CCCCC5=O)c4)c4ccccc43)[C@H]2C)cc1 in the records?
Key: 0.0247

Exercise: Return reported composite z-score; argument: CCCC=C(CCC)[C@@H](NC(=O)c1cccs1)c1ccc(C(=O)OC)cc1
Key: -0.185
